biological target: HIV-1 integrase wild-type (IN1-288) (Human immunodeficiency virus 1, UniProt P12497 P12497:1148-1435); test: inhibition; both activities 0.120; row misprinted T30745
pIC50: −log10 of the molar value.

[
  {
    "Binder": "GCGGGGCTCCATGGGGGTCG (structured_DNA, pPT (PS at first and last linkages)) [T30754]",
    "pIC50": 6.92
  }
]
